This collection of values is drawn from the supplement of paper PMC10307832.

- Tested on: CAL-12T
- measurementNotes: relative viability (nuclei count vs DMSO), 5 days (fraction); higher = more cells survive
- conditionsUsed: first compound 0.4 µM
Property: relative viability; scope: individual compounds
measureName: relative viability

>>> reported("COc1cc(N2CCC(C(N)=O)CC2)ccc1Nc1nc(N)c(Cl)c(Nc2ccccc2S(=O)(=O)C(C)C)n1 [HG-5-88-01] + COc1cccc2cc(-c3nc([C@H]4CC[C@H](C(=O)O)CC4)n4ncnc(N)c34)[nH]c12 [OSI-027] (partner 0.5 µM)")
0.612
>>> reported("C[C@@H]1CN(CC(=O)Nc2ccc3c(c2)Cc2cccc(-c4cc(=O)cc(N5CCOCC5)o4)c2S3)C[C@H](C)O1 + CCNC(=O)c1noc(-c2cc(C(C)C)c(O)cc2O)c1-c1ccc(CN2CCOCC2)cc1 [Luminespib] (partner 0.01 µM)")
0.613
>>> reported("Clc1ccc(Nc2nnc(Cc3ccncc3)c3ccccc23)cc1 [Vatalanib] + O=C(c1cc(Cc2n[nH]c(=O)c3ccccc23)ccc1F)N1CCN(C(=O)C2CC2)CC1 [Olaparib] (partner 8 µM)")
0.773
>>> reported("C[C@@H]1CN(CC(=O)Nc2ccc3c(c2)Cc2cccc(-c4cc(=O)cc(N5CCOCC5)o4)c2S3)C[C@H](C)O1 + CC(C)C[C@H](NC(=O)[C@H](Cc1ccccc1)NC(=O)c1cnccn1)B(O)O [Bortezomib] (partner 0.002 µM)")
1.06

====

- System: NCI-H1792
- measurementNotes: relative viability (nuclei count vs DMSO), 5 days (fraction); higher = more cells survive
- conditionsUsed: first compound 0.1265 µM
Property: relative viability; scope: individual compounds
measureName: relative viability

>>> reported("COc1cc(N2CCC(C(N)=O)CC2)ccc1Nc1nc(N)c(Cl)c(Nc2ccccc2S(=O)(=O)C(C)C)n1 [HG-5-88-01] + CCNC(=O)c1noc(-c2cc(C(C)C)c(O)cc2O)c1-c1ccc(CN2CCOCC2)cc1 [Luminespib] (partner 0.01 µM)")
0.609
>>> reported("C[C@@H]1CN(CC(=O)Nc2ccc3c(c2)Cc2cccc(-c4cc(=O)cc(N5CCOCC5)o4)c2S3)C[C@H](C)O1 + C[C@]1(O)C[C@@H](c2nc(-c3ccc4ccc(-c5ccccc5)nc4c3)c3c(N)nccn32)C1 [Linsitinib] (partner 1 µM)")
0.519
>>> reported("Clc1ccc(Nc2nnc(Cc3ccncc3)c3ccccc23)cc1 [Vatalanib] + CS(=O)(=O)CCNCc1ccc(-c2ccc3ncnc(Nc4ccc(OCc5cccc(F)c5)c(Cl)c4)c3c2)o1 [Lapatinib] (partner 2 µM)")
0.852
>>> reported("C[C@@H]1CN(CC(=O)Nc2ccc3c(c2)Cc2cccc(-c4cc(=O)cc(N5CCOCC5)o4)c2S3)C[C@H](C)O1 + Nc1nc2[nH]cc(CCc3ccc(C(=O)N[C@@H](CCC(=O)O)C(=O)O)cc3)c2c(=O)[nH]1 [Pemetrexed] (partner 0.2 µM)")
0.766

====

Property: relative viability; scope: individual compounds
- Tested on: SW 900
- measurementNotes: relative viability (nuclei count vs DMSO), 5 days (fraction); higher = more cells survive
- conditionsUsed: first compound 0.3162 µM
measureName: relative viability

>>> reported("CC(C)Oc1cc(Nc2nc(N[C@@H](C)c3ccc(F)cn3)ncc2Cl)n[nH]1 [AZ23] + O=C(CCCCCCC(=O)Nc1ccccc1)NO [Vorinostat] (partner 1 µM)")
0.544
>>> reported("CC(C)Oc1cc(Nc2nc(N[C@@H](C)c3ccc(F)cn3)ncc2Cl)n[nH]1 [AZ23] + COc1cccc2cc(-c3nc([C@H]4CC[C@H](C(=O)O)CC4)n4ncnc(N)c34)[nH]c12 [OSI-027] (partner 0.5 µM)")
0.579
>>> reported("CC(C)Oc1cc(Nc2nc(N[C@@H](C)c3ccc(F)cn3)ncc2Cl)n[nH]1 [AZ23] + CC(=O)Nc1cccc(-n2c(=O)n(C3CC3)c(=O)c3c(Nc4ccc(I)cc4F)n(C)c(=O)c(C)c32)c1 [Trametinib] (partner 0.02 µM)")
0.873
>>> reported("CC(C)Oc1cc(Nc2nc(N[C@@H](C)c3ccc(F)cn3)ncc2Cl)n[nH]1 [AZ23] + COc1cc2c(Oc3ccc(NC(=O)C4(C(=O)Nc5ccc(F)cc5)CC4)cc3F)ccnc2cc1OCCCN1CCOCC1 [Foretinib] (partner 0.25 µM)")
0.775
>>> reported("CC(C)Oc1cc(Nc2nc(N[C@@H](C)c3ccc(F)cn3)ncc2Cl)n[nH]1 [AZ23] + O=C(c1cc(Cc2n[nH]c(=O)c3ccccc23)ccc1F)N1CCN(C(=O)C2CC2)CC1 [Olaparib] (partner 8 µM)")
0.869
